TARGET OR SYSTEM: Methanococcus maripaludis chaperonin (MmCpn) (UniProt Q6LX38)
PROCEDURE DETAILS: High-Throughput Screening for Modulators of Cytosolic Chaperonin Activity: MmCpn Primary Screen (AID 488978);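 further: 50 nM MmCpn enzyme hydrolysing 30 µM ATP at 37 °C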
EXPERIMENTAL CONTEXT: Purified MmCpn ATPase activity, ADP HTRF detection, 10 min; series mostly up to 76.9 µM
Description: Chaperonins are key components of the cellular chaperone machinery. These large complexes consist of two stacked 7-9 membered rings, each containing a central cavity. Substrates are folded within the cavity in an ATP-dependent manner. TRiC is a complex of eight different, essential proteins. […] 7. Read using EnVision plate reader at Excitation = 320nm and Emission = 590nm, 665nm
Activity calls are given as the source filed them. The call rests on the fitted dose curve; in most records, active means well fitted curve in the direction sought with a large enough effect; inconclusive means small, poorly fitted or top-dose-only effect, or another doubt; inactive means no such curve, though single readings can be large or run the other way.
READOUT KIND: outcome

> print(dat)
                                    molecule  readout.kind    result
 1  OCCN1CCN(CCCN2c3ccccc3Sc3ccc(C(F)(F)F)cc32)CC1       outcome  inactive
 2       N[C@@H](Cc1c[nH]c2ccc(O)cc12)C(=O)O       outcome  inactive
 3  CN(C)C(=O)C(CCN1CCC(O)(c2ccc(Cl)cc2)CC1)(c1ccccc1)c1ccccc1       outcome  inactive
 4     CN1CCN(C2=Nc3cc(Cl)ccc3Nc3ccccc32)CC1       outcome  inactive
 5  NC(CO)C(=O)NNCc1ccc(O)c(O)c1O (stereo not given)       outcome  inactive
 6                             NCCc1cnc[nH]1       outcome  inactive
 7  COc1cc2c(c(OC)c1OC)-c1ccc(OC)c(=O)cc1[C@@H](NC(C)=O)CC2       outcome  inactive
 8  CC(COc1ccccc1)N(CCCl)Cc1ccccc1 (stereo not given)       outcome  inactive
 9  Cc1cn([C@H]2C=C[C@@H](CO)O2)c(=O)[nH]c1=O       outcome  inactive
10  O=C1Cc2cc(CCN3CCN(c4nsc5ccccc45)CC3)c(Cl)cc2N1       outcome  inactive

* * *

PROCEDURE DETAILS: Quantitative High-Throughput drug screen in 47 multiple myeloma cell lines against the NCATS MIPE library collection: KMS27_JCRB cell viability assay (AID 1918970); further: nearly all actives have a fitted effect of over 30% in size
EXPERIMENTAL CONTEXT: KMS27 myeloma cells, CellTiter-Glo ATP viability, 48 h; series mostly up to 45.8 µM
Inconclusive results are not listed. Active and inactive are the calls of the source. Calls follow the shape of the dose curve; as a rule, active = well fitted cell-killing curve with a large enough effect; inconclusive = small, poorly fitted or top-dose-only effect, or effect the other way; inactive = no such curve, though single readings can be large or run the other way.
Outcomes: T = active, F = inactive

> print(dat)
                                    compound  class.label
 1  CS(=O)(=O)Nc1ccc([N+](=O)[O-])cc1Oc1ccccc1            F
 2  CCN1CCCC1CNC(=O)c1cc(S(=O)(=O)CC)c(N)cc1OC (stereo not drawn)            F
 3    CN1CCN(CCCN2c3ccccc3Sc3ccc(Cl)cc32)CC1            T
 4  CC1(C)O[C@H]2CC(=O)OC[C@]23[C@H]2CC[C@@]4(C)[C@H](c5ccoc5)OC(=O)[C@H]5O[C@]54[C@]2(C)C(=O)C[C@@H]13            F
 5        CN1CCC(=C2c3ccccc3C=Cc3ccccc32)CC1            T
 6           CNCCCC12CCC(c3ccccc31)c1ccccc12            T
 7  CCCCc1oc2ccccc2c1C(=O)c1cc(I)c(OCCN(CC)CC)c(I)c1            T
 8  NC(CO)C(=O)NNCc1ccc(O)c(O)c1O (stereo not drawn)            F
 9  O=C1c2c(O)ccc(O)c2C(=O)c2c(NCCNCCO)ccc(NCCNCCO)c21            T
10  O=C(c1ccc(OCCN2CCCCC2)cc1)c1c(-c2ccc(O)cc2)sc2cc(O)ccc12            T
11               CN(C)c1nc(N(C)C)nc(N(C)C)n1            F
12              CCOC(=O)C(C)(C)Oc1ccc(Cl)cc1            F
13                Cn1cnc2c1c(=O)[nH]c(=O)n2C            T
14         CCOC(=O)Nc1ccc(NCc2ccc(F)cc2)nc1N            T
15                Cn1c(=O)c2[nH]cnc2n(C)c1=O            F
16                   Nc1c2c(nc3ccccc13)CCCC2            F
17  CN(C)C(=O)C(CCN1CCC(O)(c2ccc(Cl)cc2)CC1)(c1ccccc1)c1ccccc1            F
18  CC(CCc1ccc(O)cc1)NCCc1ccc(O)c(O)c1 (stereo not drawn)            T
19  Cc1cnc(C(=O)NCCc2ccc(S(=O)(=O)NC(=O)NC3CCCCC3)cc2)cn1            F
20  CC(C)NCC(O)c1ccc(O)c(O)c1 (stereo not drawn)            T
21          Nc1nc2c(ncn2COC(CO)CO)c(=O)[nH]1            T
22  COc1ccccc1OCC(O)CN1CCN(CC(=O)Nc2c(C)cccc2C)CC1 (stereo not drawn)            F
23  C[C@@H]1CC(=O)NN=C1c1ccc(NN=C(C#N)C#N)cc1            F

* * *

PROCEDURE DETAILS: Quantitative High-Throughput drug screen in 47 multiple myeloma cell lines against the NCATS MIPE library collection: KMS12BM_JCRB cell viability assay (AID 1918971); further: nearly all actives have a fitted effect of over 35% in size; further: potency means the concentration at half of the fitted maximal effect
EXPERIMENTAL CONTEXT: KMS12BM myeloma viability, CellTiter-Glo ATP, 48 h; series mostly up to 45.8 µM
Results filed as inconclusive are left out. The source made the active and inactive calls. The call rests on the fitted dose curve; in most records, active means well fitted cell-killing curve with a large enough effect; inconclusive means small, poorly fitted or top-dose-only effect, or effect the other way; inactive means no such curve, though single readings can be large or run the other way.
READOUT KIND: Potency

> print(dat)
                                   molecule            result
1         CN(C)CCCN1c2ccccc2CCc2ccc(Cl)cc21  18.7 µM (active)
2  COc1ccccc1OCC(O)CN1CCN(CC(=O)Nc2c(C)cccc2C)CC1 (stereo not given)          inactive
3  C[C@@H]1CC(=O)NN=C1c1ccc(NN=C(C#N)C#N)cc1  18.7 µM (active)
4  CC(CCc1ccc(O)cc1)NCCc1ccc(O)c(O)c1 (stereo not given)  14.8 µM (active)
5                COc1nc(C)nc(Cl)c1NC1=NCCN1          inactive

* * *

TARGET OR SYSTEM: Pyruvate kinase (Leishmania mexicana)
PROCEDURE DETAILS: qHTS Validation Assay for Inhibitors of Leishmania Mexicana Pyruvate Kinase (AID 945)
EXPERIMENTAL CONTEXT: purified L. mexicana pyruvate kinase, enzyme activity, E451W mutant enzyme; series mostly up to 57.5 µM
Source text: NIH Molecular Libraries Screening Centers Network [MLSCN] NIH Chemical Genomics Center [NCGC] PI names: Malcom Walkinshaw, Hugh Morgan and Linda Gilmore University of Edinburgh, Edinburgh, UK Species of Leishmania are responsible for a wide spectrum of diseases throughout the tropics and subtropics, ranging from self-healing ulcers to highly disfiguring lesions and serious, often lethal visceral diseases, such as kala-azar. […]
Calls of active or inactive are those of the source. Calls come from the whole dose curve; as a rule, active = well fitted inhibition curve with a large enough effect; inconclusive = small, poorly fitted or top-dose-only effect; inactive = no such curve, though single readings can be large or run the other way.
Possible outcomes: active, inactive

> print(dat)
                                    molecule  class.label
 1    Clc1ccccc1C(c1ccccc1)(c1ccccc1)n1ccnc1     inactive
 2  COc1ccc(C2CNC(=O)C2)cc1OC1CCCC1 (centres undefined)     inactive
 3  O=C1N(c2ccccc2)c2ccccc2C1(Cc1ccncc1)Cc1ccncc1     inactive
 4  CC[N+](CC)(CC)CCOc1cccc(OCC[N+](CC)(CC)CC)c1OCC[N+](CC)(CC)CC     inactive
 5  COc1cc2c(c(OC)c1OC)-c1ccc(OC)c(=O)cc1[C@@H](NC(C)=O)CC2     inactive
 6  Fc1ccc([C@@H]2CCNC[C@H]2COc2ccc3c(c2)OCO3)cc1     inactive
 7           C[C@](N)(Cc1ccc(O)c(O)c1)C(=O)O     inactive
 8           Cc1cc(C(C)(C)C)cc(C)c1CC1=NCCN1     inactive
 9           CNCCCC12CCC(c3ccccc31)c1ccccc12     inactive
10               NC(=O)OCC(COC(N)=O)c1ccccc1     inactive
11   CCOC(=O)c1ncn2c1CN(C)C(=O)c1cc(F)ccc1-2     inactive
12                             NCCS(=O)(=O)O     inactive
13         CCOC(=O)Nc1ccc(NCc2ccc(F)cc2)nc1N     inactive
14  Clc1ccc(C(c2ccccc2Cl)C(Cl)Cl)cc1 (centres undefined)     inactive
15       Cn1ccc2cc3c(cc21)CCN3C(=O)Nc1cccnc1       active
16    COC(=O)Nc1nc2ccc(C(=O)c3cccs3)cc2[nH]1     inactive
17  Cc1cn([C@H]2C=C[C@@H](CO)O2)c(=O)[nH]c1=O     inactive
18  O=C(CCCN1CCC(O)(c2ccc(Cl)cc2)CC1)c1ccc(F)cc1     inactive
19        CN1CCC(=C2c3ccccc3C=Cc3ccccc32)CC1     inactive
20                   O=c1[nH]cc(F)c(=O)[nH]1     inactive
21        NS(=O)(=O)c1cc2c(cc1Cl)NCNS2(=O)=O     inactive
22       Nc1ccn([C@H]2CC[C@@H](CO)O2)c(=O)n1     inactive
23    CN1CCN(CCCN2c3ccccc3Sc3ccc(Cl)cc32)CC1     inactive
24  CCCCc1oc2ccccc2c1C(=O)c1cc(I)c(OCCN(CC)CC)c(I)c1     inactive
25  CC(C)C(=O)Nc1ccc([N+](=O)[O-])c(C(F)(F)F)c1     inactive
26                              NCCCCCC(=O)O     inactive
27  Cc1cnc(C(=O)NCCc2ccc(S(=O)(=O)NC(=O)NC3CCCCC3)cc2)cn1     inactive
28  O=c1c(O)c(-c2ccc(O)c(O)c2)oc2cc(O)cc(O)c12     inactive
29      O=c1c(-c2ccc(O)cc2)coc2cc(O)cc(O)c12       active
